procedureDetails: AUC (0 to infinity) in male ICR mouse at 1 mg/kg, iv measured after 24 hrs by LC-MS/MS analysis
Assay type: ADME, organism-based
assaySetup: in vivo
metricName: AUC(0-inf) (ng·h/mL)
Numbers only, in ng·h/mL.

## Task What value of AUC(0-inf) has been recorded for this entry: COc1cccc(-c2cc(N3CCCc4ccccc4C3)nc(N)n2)c1
## Result 184

* * *

experimentalTarget: Sodium channel protein type 2 subunit alpha (Homo sapiens, UniProt Q99250)
procedureDetails: Inhibition of human Nav1.2 expressed in HEK293 cells at -40 mv holding potential measured after 5 mins by whole cell voltage clamp electrophysiological analysis
Format: cell-based
Sequence (Q99250 whole entry): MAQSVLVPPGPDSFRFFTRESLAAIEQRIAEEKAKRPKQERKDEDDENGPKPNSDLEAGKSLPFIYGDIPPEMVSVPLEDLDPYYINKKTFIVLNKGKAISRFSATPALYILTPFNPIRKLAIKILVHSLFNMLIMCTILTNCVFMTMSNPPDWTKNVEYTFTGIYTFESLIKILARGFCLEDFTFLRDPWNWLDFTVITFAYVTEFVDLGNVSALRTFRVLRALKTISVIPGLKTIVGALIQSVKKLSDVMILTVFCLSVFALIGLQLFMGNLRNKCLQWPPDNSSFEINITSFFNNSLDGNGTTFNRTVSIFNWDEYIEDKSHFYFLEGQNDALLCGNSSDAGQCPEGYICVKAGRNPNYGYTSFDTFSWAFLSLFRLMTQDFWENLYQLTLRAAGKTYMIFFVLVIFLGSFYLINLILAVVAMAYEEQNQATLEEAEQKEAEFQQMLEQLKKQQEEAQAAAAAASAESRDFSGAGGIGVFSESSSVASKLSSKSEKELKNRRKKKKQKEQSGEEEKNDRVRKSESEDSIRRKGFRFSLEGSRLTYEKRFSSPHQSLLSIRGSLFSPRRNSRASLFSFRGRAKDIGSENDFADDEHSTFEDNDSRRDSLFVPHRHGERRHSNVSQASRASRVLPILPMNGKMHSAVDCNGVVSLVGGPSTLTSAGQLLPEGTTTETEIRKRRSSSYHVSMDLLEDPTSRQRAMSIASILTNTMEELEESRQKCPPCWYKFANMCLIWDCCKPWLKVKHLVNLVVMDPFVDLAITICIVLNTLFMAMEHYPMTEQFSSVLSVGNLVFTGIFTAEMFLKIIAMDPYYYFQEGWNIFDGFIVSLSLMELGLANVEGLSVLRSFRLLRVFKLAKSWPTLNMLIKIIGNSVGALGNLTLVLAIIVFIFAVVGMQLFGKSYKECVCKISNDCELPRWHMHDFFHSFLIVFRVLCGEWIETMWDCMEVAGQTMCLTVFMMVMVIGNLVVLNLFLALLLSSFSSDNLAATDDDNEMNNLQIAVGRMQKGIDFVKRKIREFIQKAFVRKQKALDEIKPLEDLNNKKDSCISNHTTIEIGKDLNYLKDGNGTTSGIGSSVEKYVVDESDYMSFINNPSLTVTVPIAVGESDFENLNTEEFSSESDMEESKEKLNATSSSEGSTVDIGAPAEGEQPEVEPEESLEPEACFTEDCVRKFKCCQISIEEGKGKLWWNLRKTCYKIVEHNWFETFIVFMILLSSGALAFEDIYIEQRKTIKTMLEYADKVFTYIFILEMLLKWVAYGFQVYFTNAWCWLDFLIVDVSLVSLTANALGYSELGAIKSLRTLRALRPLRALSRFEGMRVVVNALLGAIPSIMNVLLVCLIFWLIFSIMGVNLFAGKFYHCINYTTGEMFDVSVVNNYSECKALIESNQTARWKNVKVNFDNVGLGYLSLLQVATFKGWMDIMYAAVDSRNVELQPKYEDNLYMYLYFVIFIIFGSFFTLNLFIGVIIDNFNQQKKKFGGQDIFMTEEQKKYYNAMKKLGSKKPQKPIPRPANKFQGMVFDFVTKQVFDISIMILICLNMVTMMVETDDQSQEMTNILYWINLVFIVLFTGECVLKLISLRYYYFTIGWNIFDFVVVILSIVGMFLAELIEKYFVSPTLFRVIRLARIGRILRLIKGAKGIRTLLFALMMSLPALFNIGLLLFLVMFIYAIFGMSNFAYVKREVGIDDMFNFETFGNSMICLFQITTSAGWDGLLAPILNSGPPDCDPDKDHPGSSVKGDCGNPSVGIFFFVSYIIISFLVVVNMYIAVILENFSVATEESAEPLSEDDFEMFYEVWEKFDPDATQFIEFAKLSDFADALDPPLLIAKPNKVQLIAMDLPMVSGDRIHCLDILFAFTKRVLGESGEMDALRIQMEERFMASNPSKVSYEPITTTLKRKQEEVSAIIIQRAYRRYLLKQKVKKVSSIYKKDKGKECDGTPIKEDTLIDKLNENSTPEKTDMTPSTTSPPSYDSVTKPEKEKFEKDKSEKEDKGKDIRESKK
metricName: IC50 (nM)
Numbers only, in nM.

> print(dat)
                               smilesstring                        experimentaltarget  metricname  unitstring  assayvalue
1  COc1cccc(-c2cc(N3CCCc4ccccc4C3)nc(N)n2)c1  Sodium channel protein type 2 subunit alpha (Homo sapiens, UniProt Q99250)        IC50          nM         120
2  COc1cccc(-c2cc(N3CCCc4ccc(C)cc4C3)nc(N)n2)c1  Sodium channel protein type 2 subunit alpha (Homo sapiens, UniProt Q99250)        IC50          nM          65

Consider the record given below.
## Task Any idea what its IC50 is? The compound is COc1cccc(-c2cc(N3CC4CC(C3)c3ccccc34)nc(N)n2)c1
## Result 635

* * *

procedureDetails: AUC (0 to infinity) in male ICR mouse at 20 mg/kg, po measured after 24 hrs by LC-MS/MS analysis
Type: ADME, organism-based
assaySetup: in vivo
metricName: AUC(0-inf) (ng·h/mL)
Answers are plain numbers, in ng·h/mL.

## Task Consider the molecule COc1cccc(-c2cc(N3CCCc4ccccc4C3)nc(N)n2)c1 and give its measured AUC(0-inf).
## Result 118

* * *

What T/C was measured for each of the following?
experimentalTarget: Sodium channel protein type 2 subunit alpha (Homo sapiens)
procedureDetails: Inhibition of human Nav1.2 expressed in HEK293 cells assessed as test to control ratio at 1 uM measured after 5 mins by whole cell voltage clamp electrophysiological analysis
Type: cell-based
Sequence (Q99250 whole entry, looked up): as the sequence (Q99250 whole entry) above

Answered examples (4):
> print(dat)
                                   compound  assayvalue
1  COc1cccc(-c2cc(N3CCCc4ccc(F)cc4C3)nc(N)n2)c1        0.03
2  COc1cccc(-c2cc(N3CC4CC(C3)c3ccccc34)nc(NS(=O)(=O)c3cccc(C)c3)n2)c1        0.68
3  COc1cccc(-c2cc(N3CCCc4cc(F)c(F)cc4C3)nc(N)n2)c1        0.65
4  Nc1nc(-c2cccn2C2CCCCO2)cc(N2CCCc3ccccc3C2)n1 (stereo not given)        0.77

## Task I would be grateful if you could share the reported T/C for COc1cccc(-c2cc(NCCc3ccc(OC)c(OC)c3)nc(N)n2)c1 .
## Result 0.35

* * *

procedureDetails: MRT (0 to infinity) in male ICR mouse at 1 mg/kg, iv measured after 24 hrs by LC-MS/MS analysis
Assay type: ADME, organism-based
assaySetup: in vivo
metricName: MRT inf (min)
One number for each entry, in min.

## Task Need MRT inf of COc1cccc(-c2cc(N3CCCc4ccccc4C3)nc(N)n2)c1 , thanks.
## Result 33.6
